molecular target: recombinant human MetAP2 (Homo sapiens, UniProt P50579); construct: made in house; host or cells: Sf9 insect cells; test: Inhibition of recombinant human MetAP2 activity (MAS substrate, amino acid oxidase/Amplex red fluorescence); type: biochemical; details: manganese enzyme, 30 minutes at 25° C., pH 7.5, 0.75 mM MAS substrate, 1% DMSO
Sequence (P50579 whole entry): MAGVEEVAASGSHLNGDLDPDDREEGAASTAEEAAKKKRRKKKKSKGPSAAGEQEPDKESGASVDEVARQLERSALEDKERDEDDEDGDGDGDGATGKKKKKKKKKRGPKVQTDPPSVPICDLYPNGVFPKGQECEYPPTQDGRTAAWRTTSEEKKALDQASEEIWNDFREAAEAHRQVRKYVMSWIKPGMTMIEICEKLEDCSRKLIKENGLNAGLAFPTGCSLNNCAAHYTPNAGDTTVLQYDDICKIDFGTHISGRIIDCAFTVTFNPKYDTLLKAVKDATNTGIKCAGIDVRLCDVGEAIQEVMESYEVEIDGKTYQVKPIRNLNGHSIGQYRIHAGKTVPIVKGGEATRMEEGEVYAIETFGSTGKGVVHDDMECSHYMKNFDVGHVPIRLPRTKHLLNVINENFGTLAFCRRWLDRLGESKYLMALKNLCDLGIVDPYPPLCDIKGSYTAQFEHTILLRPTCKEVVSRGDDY
Readout kind: IC50

# count of solved cases: 3
In [3]: df
Out[3]:
                                   molecule  readout_kind    value
0  CCN(CC)C/C=C\c1cc(F)ccc1S(=O)(=O)Nc1cc(F)c2c(c1C(=O)O)OCC1CC21 (racemic)          IC50  < 50 nM
1  CCN(CC)CCCc1cc(F)ccc1S(=O)(=O)Nc1cc(F)c2c(c1C(=O)O)OCC1CC21 (racemic)          IC50  > 50 nM
2  CCN1CC[C@@H](Cc2cc(F)ccc2S(=O)(=O)Nc2cc(F)c3c(c2C(=O)O)OCC2CC32)C1 (mixture of isomers)          IC50  < 50 nM

// moving on: another record for IC50
Note down IC50 recorded for CCN(CC)C/C=C\c1cc(F)ccc1S(=O)(=O)Nc1c(F)cc2c(c1C(=O)O)OCC1CC21 (racemic)
> 50 nM
